system: TNK2; conditions: concentration: 1 μM, replicates: in singlicate; n = 1;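 note: KINOMEscan kinase panel screen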
# 1.0 = %Inh below 30% (exclusive); 0.0 = %Inh at/above 30%

These solved cases illustrate the format of a correct answer.
{"compound": "Fc1cc(Cl)ccc1Nc1ccnc2cc(-c3ccc(CN4CCOCC4)o3)ccc12 [GW560109]", "qualitativeLabel": 0.0}
{"compound": "Cc1ccccc1CC(=O)N1CCc2cc(-c3cn(C)c4ncnc(N)c34)ccc21 [GSK2603346]", "qualitativeLabel": 1.0}
{"compound": "O=C(O)C(F)(F)F.O=c1[nH]ccc2nc(N[C@@H]3CCNC3)nc(Nc3cc(Cl)cc(Cl)c3)c12 [GSK2188764]", "qualitativeLabel": 1.0}
{"compound": "Cc1ccc(O)cc1Nc1ccnc2cc(-c3ccc(CN4CCCCC4)o3)ccc12 [GW557777]", "qualitativeLabel": 1.0}

Now let's try a different one.
Lab note: %Inh threshold 30%. Does this compound come in strictly under it? Cc1ccc(Nc2ccnc(Nc3ccc(C)c(F)c3)n2)cc1O.Cl [GW582868]
1.0
